target: GDP-bound KRAS protein (aa 1-169), containing both G12C and C118A amino acid substitutions (Homo sapiens (Human), UniProt P01116, C118A/G12C); assay: Coupled Nucleotide Exchange Assay; type: biochemical; settings: third Coupled Exchange column; compound pre-incubation probably 20 hours (rest of head not shown; b435 lists 5 min, 2 hours or 20 hours); read-out: Coupled Exchange IC50
Sequence (P01116 other isoform, or with tags, fused parts or gaps G12C/C118A): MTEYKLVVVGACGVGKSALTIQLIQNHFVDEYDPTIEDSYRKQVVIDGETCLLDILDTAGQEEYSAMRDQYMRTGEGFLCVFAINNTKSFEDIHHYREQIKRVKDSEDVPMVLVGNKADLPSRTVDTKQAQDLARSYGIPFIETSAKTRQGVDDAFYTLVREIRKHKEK
Assay metric: IC50 (nM)

[[record]]
mol = "C=CC(=O)N1CC(NC(=O)Cn2c(C)c(C(=O)OC(C)(C)C)c3cc([N+](=O)[O-])ccc32)C1"
value_prefix = ">"
test_result = 250000

[[record]]
mol = "C=CC(=O)N1CC(N(C)C(=O)Cn2cc(C)c3cc(Br)ccc32)C1"
value_prefix = "="
test_result = 1700

[[record]]
mol = "C=CC(=O)N1CC(N(C)C(=O)Cn2ccc3cc(Br)ccc32)C1"
value_prefix = "="
test_result = 2730

[[record]]
mol = "C=CC(=O)N1C[C@H](N(C)C(=O)Cn2ccc3cc(Br)ccc32)[C@@H]1C"
value_prefix = "="
test_result = 8140

[[record]]
mol = "C=CC(=O)N1CC(C)(N(C)C(=O)Cn2ccc3cc(Br)ccc32)C1"
value_prefix = ">"
test_result = 31300

[[record]]
mol = "C=CC(=O)N1C[C@H](NC(=O)Cn2ccc3cc(Br)ccc32)[C@@H]1C"
value_prefix = "="
test_result = 2220

[[record]]
mol = "C=CC(=O)N1CC(N(C)C(=O)Cn2c(C)cc3cc(Br)ccc32)C1"
value_prefix = "="
test_result = 1220

[[record]]
mol = "C=CC(=O)N1CC(NC(=O)Cn2c(C)c(-c3nccnc3Cl)c3cc(Cl)ccc32)C1"
value_prefix = "="
test_result = 2320


* * *

test system: Phosphorylation of ERK1/2 in A549 cells; assay: Phospho-ERK1/2 MSD Assay (A549); assay type: cell-based; conditions: Homo sapiens, A549, 4 h, read-out: pERK IC50 (4 h, A549), 4 h compound treatment
Assay metric: IC50

[[record]]
mol = "C=CC(=O)N1CC(NC(=O)Cn2c(CC)c(C(=O)N3CCc4c(ccnc4OC)C3)c3cc(Cl)cc(C)c32)C1"
tgt = "Phosphorylation of ERK1/2 in A549 cells"
test_result = "> 100 µM"

[[record]]
mol = "C=CC(=O)N1CC(NC(=O)Cn2cc(C(=O)NCCc3ccc(Cl)cc3Cl)c3cc(Br)cc(C)c32)C1"
tgt = "Phosphorylation of ERK1/2 in A549 cells"
test_result = "> 100 µM"

[[record]]
mol = "C=CC(=O)N1CC(N(C)C(=O)Cn2c(C)c(C(=O)N3CCN(c4ccc(C(F)(F)F)cn4)CC3)c3cc(Br)ccc32)C1"
tgt = "Phosphorylation of ERK1/2 in A549 cells"
test_result = "43.4 µM"

[[record]]
mol = "C=CC(=O)N1CC(NC(=O)Cn2cc(C(=O)NCCC(=O)Nc3ccccc3CC)c3cc(Br)ccc32)C1"
tgt = "Phosphorylation of ERK1/2 in A549 cells"
test_result = "> 100 µM"

[[record]]
mol = "C=CC(=O)N1CC(NC(=O)Cn2cc(C(=O)NCCc3nc4ccccc4n3C)c3cc(Br)ccc32)C1"
tgt = "Phosphorylation of ERK1/2 in A549 cells"
test_result = "> 100 µM"

[[record]]
mol = "C=CC(=O)N1CC(NC(=O)Cn2c(C)c(C(=O)N3CCN(c4ccc(C)cn4)CC3)c3cc(Cl)cc(C)c32)C1"
tgt = "Phosphorylation of ERK1/2 in A549 cells"
test_result = "> 100 µM"

